Target: Potassium voltage-gated channel subfamily KQT member 2 (Rattus norvegicus) (UniProt O88943)
Sequence (O88943 whole entry, looked up): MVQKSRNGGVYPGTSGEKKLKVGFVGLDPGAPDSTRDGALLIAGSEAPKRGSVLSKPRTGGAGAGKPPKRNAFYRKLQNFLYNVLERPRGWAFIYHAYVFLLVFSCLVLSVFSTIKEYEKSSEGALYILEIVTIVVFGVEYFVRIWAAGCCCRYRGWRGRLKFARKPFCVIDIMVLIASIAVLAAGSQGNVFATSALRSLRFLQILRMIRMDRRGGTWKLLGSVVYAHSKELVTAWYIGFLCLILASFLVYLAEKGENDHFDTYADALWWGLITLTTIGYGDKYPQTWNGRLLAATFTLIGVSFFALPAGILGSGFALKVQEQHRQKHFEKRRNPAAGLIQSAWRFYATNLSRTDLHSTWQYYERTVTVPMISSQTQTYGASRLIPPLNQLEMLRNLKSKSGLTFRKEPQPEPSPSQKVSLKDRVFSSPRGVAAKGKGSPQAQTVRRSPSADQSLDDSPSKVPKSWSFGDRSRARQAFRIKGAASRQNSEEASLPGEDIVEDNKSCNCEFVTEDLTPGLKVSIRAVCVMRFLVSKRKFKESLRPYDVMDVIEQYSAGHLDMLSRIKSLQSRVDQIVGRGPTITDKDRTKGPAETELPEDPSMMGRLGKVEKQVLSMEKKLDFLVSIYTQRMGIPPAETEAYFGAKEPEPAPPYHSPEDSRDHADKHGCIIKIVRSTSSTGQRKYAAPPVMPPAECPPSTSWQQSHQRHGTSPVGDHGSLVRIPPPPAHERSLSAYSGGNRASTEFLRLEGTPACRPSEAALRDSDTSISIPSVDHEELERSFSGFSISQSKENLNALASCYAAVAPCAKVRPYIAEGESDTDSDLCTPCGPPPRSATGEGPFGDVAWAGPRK
Assay: KCNQ2 blockade in CHO cells – cell-based, FluxOR thallium flux, counter-screen for hERG block protector project, confirmation (AID 1946)
Details: FluxOR thallium flux fluorescence, at 10 µM, active compounds read low, zero marks the 3-SD hit cutoff
In all, about 2,400 compounds went through this assay and about 180 (7.5%) were called active. Many of the other results were omitted from the sample, so actives are more common in it than they were.
The compounds listed here are annotated with their activity change vs negative control.
Your answer should be a plain number; it is taken to be in %.

Measured activity change vs negative control of `Cc1ccc(C(=O)NC(=S)N(C)C2CCCCC2)cc1` : 27.3

The reported activity change vs negative control of the compound CC1CCCN(C(=O)COC(=O)c2cc(-c3cccs3)nn2-c2ccccc2)C1 (stereo unspecified) was -2.5

----------
Reported activity change vs negative control by item:
Molecular target: Potassium voltage-gated channel subfamily KQT member 2 (Rattus norvegicus)
Test: KCNQ2 blockade in CHO cells – cell-based, FluxOR thallium flux, counter-screen for hERG block protector project, confirmation (AID 1946)
Settings: FluxOR thallium flux fluorescence, at 10 µM, active compounds read low, zero marks the 3-SD hit cutoff
The campaign covered roughly 2,400 compounds. About 180 (7.5%) were called active. The entries come from a sample that favours actives as a whole.
Please state the figure in %; there is no need to write the unit.

| Molecule | activity change vs negative control, % |
| --- | --- |
| CN(C(=S)NC(=O)c1ccccc1)C1CCCCC1 | 29.8 |
| c1ccc(-c2n[nH]c(-c3ccccn3)n2)cc1 | 20.5 |
| CCOc1ccc(-c2cccc(NC(=O)c3ccc(Br)o3)c2)nn1 | -8.6 |
| COc1ccc(C(=O)CC(=O)C(=O)Nc2ccccc2Cl)cc1 | 73.9 |
| COc1ccc(CC(=O)Nc2ccc(-c3noc(-c4ccccc4OC)n3)cc2)cc1 | 7 |
| COc1ccccc1C(=O)NNC(=O)C(=O)NC(C)(C)C | 31.3 |
| O=c1c2cc(Cl)ccc2nc(-c2ccccc2)n1O | 56.6 |
| Cc1ccc(Nc2cc(C)nn2-c2nc(C)cc(=O)[nH]2)cc1 | 83.1 |

Noted for `COCCCNC(=O)CCc1nnc(Cc2ccc(-c3ccccc3)cc2)o1` : its activity change vs negative control reads 26.3

The reported activity change vs negative control of the molecule COc1cccc(CN(C)CC2CCCN(CCc3ccc(Cl)cc3)C2)c1OC (configuration not stated) was -3.8

Consider `Cc1ccccc1Cn1nc(C)c(NC(=O)c2ccccc2)c1C` . Its measured activity change vs negative control is 73

The recorded activity change vs negative control for `CCOc1ccc2nc(/N=C/c3nc(-c4ccc(Br)cc4)oc3O)sc2c1` is 13.7

----------
Target: Potassium voltage-gated channel subfamily KQT member 2 (Rattus norvegicus)
Assay: KCNQ2 blockade in CHO cells – cell-based, FluxOR thallium flux, counter-screen for hERG block protector project, confirmation (AID 1946)
Conditions: FluxOR thallium flux fluorescence, at 10 µM, zero marks the 3-SD hit cutoff
About 180 (7.5%) of roughly 2,400 compounds were called active.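 How the source made its calls: active means readout below zero, meaning a drop past 3 SD under the dofetilide-free negative control mean; inactive means the rest.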 What follows is part of a selection rich in actives, with near analogues and random picks from the rest.
Field 'call' accepts true (1) for active, false (0) for inactive

Lab log entry: `Cc1ccc(C(=O)N/N=C(/CC(=O)c2cccs2)C(F)(F)F)cc1` — outcome as called in the assay?
false (0)

# lookup: test call for CCOc1ccccc1C(=O)NC1CC2CCCC(C1)N2Cc1nnnn1Cc1ccco1 (stereo not drawn)
true (1)

Outcome? `Oc1c(Br)cc(Br)cc1C=Nc1ccc2[nH]ncc2c1`
false (0)

In this assay, the call recorded for `COc1ccccc1C(=O)NNC(=O)C(=O)NC1CCCCC1` was what?
false (0)

# outcome recorded in this test, key = CC(NC(=O)NC1CCCCC1)c1ccc2c(c1)OCO2 (stereo not drawn)
false (0)

How was `CCOc1ccccc1NC(=S)NC(=O)c1ccco1` classified in this test?
false (0)

Which outcome was entered for the compound `CCCOc1ccc(C(=O)NNC(=S)NC(=O)c2cccs2)cc1` in this test?
true (1)

Hello, I am checking results. What call was entered for `CCOC(=O)c1sc(NC(=S)NC(=O)c2cccc(OC)c2)nc1C` ?
false (0)

Per the assay record, what outcome was assigned to `CCCOc1ccc(CN(CCC#N)C(=S)NC(=O)c2ccccc2)cc1` ?
false (0)

Test call, this compound: O=C1CC(O)(C(F)(F)F)Oc2c1ccc1ccccc21 (stereo not drawn)
false (0)

Answer briefly: the call reported for `Cc1ccc(C(=O)CC(=O)COc2ccc(Cl)cc2C)cc1` in this assay.
false (0)

// param item: `O=c1ccn(Cc2ccc(F)cc2)c2ccnc(C(F)(F)F)c12` ; yields the recorded call
true (1)

Could you please tell me the result logged for `O=C(O)COc1ccc(NC(=O)c2ccc3c(c2)C(=O)N(C2CCCCC2)C3=O)cc1` in this assay?
false (0)

----------
Target: Potassium voltage-gated channel subfamily KQT member 2 (Rattus norvegicus) (UniProt O88943)
Experiment: KCNQ2 blockade in CHO cells – cell-based, FluxOR thallium flux, counter-screen for hERG block protector project, confirmation (AID 1946)
Conditions: FluxOR thallium flux fluorescence, at 10 µM, active compounds read low, zero marks the 3-SD hit cutoff
Hit rate of the full screen: of about 2,400 compounds, about 180 (7.5%) were called active. Shown is part of a subset that was picked to be rich in actives.
Parameter measured: activity change vs negative control (%)
Enter your answer as a number in %; do not include the unit.

Measured activity change vs negative control, `CCSc1nc2c(sc3ccccc32)c(=O)n1C(C)C` : 54.6

----------
Molecular target: Potassium voltage-gated channel subfamily KQT member 2 (Rattus norvegicus)
Assay: KCNQ2 blockade in CHO cells – cell-based, FluxOR thallium flux, counter-screen for hERG block protector project, confirmation (AID 1946)
Conditions: FluxOR thallium flux fluorescence, at 10 µM, zero marks the 3-SD hit cutoff
Out of some 2,400 compounds screened, about 180 (7.5%) were called active.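 Rule for the calls: active = readout below zero, meaning a drop past 3 SD under the dofetilide-free negative control mean; inactive = the rest.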 The sample as a whole holds a higher share of actives than the screen did.
The reply should be one of these categories: 1 for active, -1 for inactive

| Compound | Group |
| --- | --- |
| O=C(COC(=O)C1CCC(=O)N1)Nc1ccc(Oc2ccccc2)cc1 (centres undefined) | -1 |
| COc1ccccc1C1C(C(=O)c2ccc(C)o2)=C(O)C(=O)N1c1cc(C)on1 (centres undefined) | -1 |

Name the outcome recorded for COc1ccc(N2CC(C(=O)OCC(=O)Nc3ccccc3C)CC2=O)cc1 (centres undefined) in the assay.
-1

Each compound tested received a call. Report the one for `O=C(Nc1cccc2[nH]ncc12)c1ccc(F)cc1` .
1

----------
Biological target: Potassium voltage-gated channel subfamily KQT member 2 (Rattus norvegicus) (UniProt O88943)
Assay: KCNQ2 blockade in CHO cells – cell-based, FluxOR thallium flux, counter-screen for hERG block protector project, confirmation (AID 1946)
Conditions: FluxOR thallium flux fluorescence, at 10 µM, zero marks the 3-SD hit cutoff
Among all 2,400 compounds or so, about 180 (7.5%) were called active.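 How the source made its calls: active means readout below zero, meaning a drop past 3 SD under the dofetilide-free negative control mean; inactive means the rest.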 The entries come from a sample that favours actives as a whole.
The categories you may choose from are T = active, F = inactive

| Compound | Group |
| --- | --- |
| O=C(NN1C(=O)C2C(c3ccccc3)C=CC(c3ccccc3)C2C1=O)c1ccncc1 (centres undefined) | T |
| CC(C)OC(=O)c1c(NS(=O)(=O)c2ccccc2)sc2c1CCCC2 | F |
| CCOC(=O)C1CCN(C(=O)COC(=O)c2nn(C)c(=O)c3ccccc23)CC1 | F |

Now let's try a different one.
Hi, do you know how `Cc1[nH]n2c(=O)cc(C(C)(C)C)nc2c1-c1ccccc1` came out in this test?
F

----------
Target: Potassium voltage-gated channel subfamily KQT member 2 (Rattus norvegicus) (UniProt O88943)
Test: KCNQ2 blockade in CHO cells – cell-based, FluxOR thallium flux, counter-screen for hERG block protector project, confirmation (AID 1946)
Settings: FluxOR thallium flux fluorescence, at 10 µM, zero marks the 3-SD hit cutoff
The whole screen tested about 2,400 compounds, of which about 180 (7.5%) were called active.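 The calls were made as follows: active = readout below zero, meaning a drop past 3 SD under the dofetilide-free negative control mean; inactive = the rest.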 The sample holds actives, similar compounds and a random draw of the others, so the mix is not that of the screen.
Please reply with one of these outcomes: active, inactive

These solved cases illustrate the format of a correct answer.
| Compound | Group |
| --- | --- |
| CCCOc1ccc(C(=O)NNC(=S)NC(=O)c2ccco2)cc1 | active |
| Oc1ccc(Cl)cc1C1=NNC(c2cccs2)C1 (stereo not given) | inactive |
| Cc1ccc(-c2c(=O)n(O)c3ccccc3[n+]2[O-])cc1 | inactive |
| CCOC(=O)N1CCN(c2c(-c3ccc(C)c(C)c3)c(=O)c2=O)CC1 | inactive |

Per the records of this test, what outcome belongs to CCC1=NN(C(=O)c2ccc(Cl)cc2)C(O)(c2ccc(C)cc2)C1 (stereo not given) ?
inactive
